Listed here: items and their measured inhibition at 10 µM.
# experimental_system: Human recombinant PDE4D2 (Homo sapiens)
# Construct: purchased BPS Bioscience; host or cells: insect Sf9 cells
# Sequence (Q08499 303-809 limits assumed): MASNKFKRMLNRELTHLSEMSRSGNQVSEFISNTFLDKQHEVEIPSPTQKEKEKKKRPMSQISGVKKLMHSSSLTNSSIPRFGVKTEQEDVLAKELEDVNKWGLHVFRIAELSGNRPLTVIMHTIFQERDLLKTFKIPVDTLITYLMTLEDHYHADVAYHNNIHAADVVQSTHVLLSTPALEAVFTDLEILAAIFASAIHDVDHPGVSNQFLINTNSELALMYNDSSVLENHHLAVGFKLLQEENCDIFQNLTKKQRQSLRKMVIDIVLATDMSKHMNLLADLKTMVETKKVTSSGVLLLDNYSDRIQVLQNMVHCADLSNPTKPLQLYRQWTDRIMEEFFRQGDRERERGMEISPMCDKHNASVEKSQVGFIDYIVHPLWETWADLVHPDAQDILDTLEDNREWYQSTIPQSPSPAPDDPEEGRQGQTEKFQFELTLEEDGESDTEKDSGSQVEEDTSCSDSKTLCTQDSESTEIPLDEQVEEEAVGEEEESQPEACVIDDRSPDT
# assay_method_text: Human phosphodiesterase 4 (PDE4) inhibition, PDE4D2
# Assay type: biochemical
# cond: read-out: % inhibition range at 10 uM PDE4D2; 10 uM test compound
recorded_endpoint: inhibition at 10 µM

- COc1ccc(-c2ccnc3cc(C(=O)Nc4ccc(C(=O)N5CCOCC5)cn4)nn23)cc1OC [Compound 135]: > 80%
- COc1ccc(-c2ccnc3cc(C(=O)Nc4ccc(N5CCOCC5)cc4)nn23)cc1OC [Compound 194]: > 80%
- CCOc1ccc(NC(=O)c2cc3nccc(-c4ccc(OC)nc4)n3n2)cc1 [Compound 323]: < 50%
- COc1ccc(-c2ccnc3cc(C(=O)Nc4ccc(C(=O)N5CCOCC5)cc4)nn23)cc1OC [Compound 41]: > 80%
- COC(=O)C12CCC(NC(=O)c3cc4nccc(-c5ccc(OC)c(OC)c5)n4n3)(CC1)CC2 [Compound 144]: > 80%
- COc1ccc(-c2ccnc3cc(C(=O)N4CCN(C(=O)c5cccs5)[C@@H](C)C4)nn23)cc1OC [Compound 352]: > 80%
- COC(=O)c1ccc(NC(=O)c2cc3nccc(-c4ccc(OC)c(OC)c4)n3n2)cc1OC [Compound 192]: > 80%
- COc1ccc(-c2ccnc3cc(C(=O)N4CCN(S(=O)(=O)c5ccccc5)[C@@H](C)C4)nn23)cc1OC [Compound 355]: > 80%
- COC(=O)c1ccc(CNC(=O)c2cc3nccc(-c4ccc(OC)c(OC)c4)n3n2)cc1 [Compound 12]: 50 to 80%
- COc1ccc(-c2ccnc3cc(NC(=O)Nc4ccc(C(=O)N5CCOCC5)cc4)nn23)cc1OC [Compound 129]: > 80%
- COC(=O)c1ccc(NC(=O)c2cc3nccc(-c4ccc(OC)c(F)c4)n3n2)cc1 [Compound 33]: 50 to 80%
- COc1ccc(-c2ccnc3cc(C(=O)N4CCN(C(=O)c5ccccn5)[C@@H](C)C4)nn23)cc1OC [Compound 380]: > 80%
- COC(=O)c1ccc(NC(=O)c2cc3ncc(-c4ccc(OC)c(OC)c4)cn3n2)cc1 [Compound 239]: < 50%
- COc1ccc(-c2ccnc3cc(C(=O)Nc4ccc(O)cc4)nn23)cc1OC [Compound 15]: > 80%
- COc1ccc(-c2ccnc3cc(C(=O)N4CCN(C(=O)c5ccccc5)[C@@H](C)C4)nn23)cc1OC [Compound 210]: > 80%

* * *

EC50 reference
# experimental_system: human wild type-CFTR (Homo sapiens)
# Sequence (P13569 whole entry): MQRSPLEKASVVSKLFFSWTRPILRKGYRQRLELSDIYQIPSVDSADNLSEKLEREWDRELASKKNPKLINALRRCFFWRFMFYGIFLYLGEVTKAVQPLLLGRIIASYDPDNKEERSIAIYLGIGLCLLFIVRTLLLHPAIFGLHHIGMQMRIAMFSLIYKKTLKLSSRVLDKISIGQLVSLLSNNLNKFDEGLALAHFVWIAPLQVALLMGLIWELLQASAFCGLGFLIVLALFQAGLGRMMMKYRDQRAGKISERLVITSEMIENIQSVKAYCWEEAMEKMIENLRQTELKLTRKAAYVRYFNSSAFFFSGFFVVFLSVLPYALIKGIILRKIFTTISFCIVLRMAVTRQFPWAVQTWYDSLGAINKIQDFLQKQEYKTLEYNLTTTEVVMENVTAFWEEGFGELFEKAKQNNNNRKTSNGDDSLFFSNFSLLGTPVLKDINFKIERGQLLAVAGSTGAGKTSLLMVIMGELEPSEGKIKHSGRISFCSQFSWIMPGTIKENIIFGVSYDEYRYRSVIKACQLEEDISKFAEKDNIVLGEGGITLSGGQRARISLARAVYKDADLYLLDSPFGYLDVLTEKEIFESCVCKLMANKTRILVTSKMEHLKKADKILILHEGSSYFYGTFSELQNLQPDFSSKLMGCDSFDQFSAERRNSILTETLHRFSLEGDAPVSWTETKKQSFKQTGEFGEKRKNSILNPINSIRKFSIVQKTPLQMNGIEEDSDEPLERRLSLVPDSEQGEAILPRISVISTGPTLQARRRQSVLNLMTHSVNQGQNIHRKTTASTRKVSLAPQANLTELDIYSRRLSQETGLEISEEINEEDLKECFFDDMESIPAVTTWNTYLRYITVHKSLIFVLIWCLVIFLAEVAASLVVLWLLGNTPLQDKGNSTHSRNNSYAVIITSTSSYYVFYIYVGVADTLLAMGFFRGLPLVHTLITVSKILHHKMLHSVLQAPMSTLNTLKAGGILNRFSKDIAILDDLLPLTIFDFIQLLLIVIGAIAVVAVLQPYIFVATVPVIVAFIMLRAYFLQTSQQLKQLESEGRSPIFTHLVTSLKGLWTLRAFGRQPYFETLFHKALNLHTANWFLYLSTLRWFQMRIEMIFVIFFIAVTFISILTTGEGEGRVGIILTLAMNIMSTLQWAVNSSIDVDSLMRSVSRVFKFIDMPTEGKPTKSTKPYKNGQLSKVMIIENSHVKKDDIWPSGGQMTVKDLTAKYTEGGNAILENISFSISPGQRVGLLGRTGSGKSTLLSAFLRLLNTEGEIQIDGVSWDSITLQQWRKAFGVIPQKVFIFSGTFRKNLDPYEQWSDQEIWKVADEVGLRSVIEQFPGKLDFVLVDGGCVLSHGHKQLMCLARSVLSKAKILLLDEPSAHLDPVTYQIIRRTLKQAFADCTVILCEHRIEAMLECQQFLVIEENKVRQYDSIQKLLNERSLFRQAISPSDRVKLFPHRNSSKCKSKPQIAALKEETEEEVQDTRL
# assay_method_text: Short-circuit current measurement
# Type: cell-based
# Set-up: expressed in transfected cells
# cond: FRT cells expressing human wild type-CFTR; Forskolin 20 μM signal used as 100% activity; read-out: Short-circuit current measurement (EC50) Concentration range
recorded_endpoint: EC50

• COc1ccc(-c2ccnc3cc(C(=O)N4CCN(C(=O)c5c(F)c(F)c(F)c(F)c5F)[C@@H](C)C4)nn23)cc1OC [Compound 259] = 200 to 2000 nM
• CCOc1ccc(NC(=O)c2cc3nccc(-c4ccc(OC)c(OC)c4)n3n2)cc1 [Compound 3] = < 200 nM
• COc1ccc(-c2ccnc3cc(C(=O)Nc4ccc(C(=O)O)cc4)nn23)cc1OC [Compound 14] = ≥ 2000 nM
• COc1ccc(-c2ccnc3cc(C(=O)Nc4ccc(NC(=O)CNC(=O)OC(C)(C)C)cc4)nn23)cc1OC [Compound 280] = < 200 nM
• COC(=O)c1ccc2c(c1)CCN2C(=O)c1cc2nccc(-c3ccc(OC)c(OC)c3)n2n1 [Compound 130] = 200 to 2000 nM
• COc1ccc(-c2ccnc3cc(C(=O)NC45CCC(C(=O)N6CCN(C)CC6)(CC4)CC5)nn23)cc1OC [Compound 151] = 200 to 2000 nM
• COc1ccc(-c2ccnc3cc(C(=O)Nc4ccc(N5CCN(C(=O)OC(C)(C)C)CC5)cc4)nn23)cc1OC [Compound 271] = < 200 nM
